From: ChEMBL document CHEMBL4406859

compounds and their reported pIC50
- Tested on: HFF
- Assay comment: Cytotoxicity against human HFF cells assessed as reduction in cell viability incubated for 72 hrs by MTT assay
- Assay type: cell-based
pIC50: −log10 of the molar value.
Measured attribute: pIC50

>>> df
                                   compound  comparison_symbol  numeric_readout
0  O=C1O[C@H]([C@@H](O)Cn2cc(C3CC3)nn2)C(OCc2ccccc2)=C1OCc1ccccc1                  =             4.61
1  O=C1O[C@H]([C@@H](O)CO)C(O)=C1O [ASCORBIC ACID]                  <             4.00
2  Cc1ccc(-c2cn(C/C=C3\OC(=O)C(OCc4ccccc4)=C3OCc3ccccc3)nn2)cc1                  <             4.00
3  O=C1O[C@H]([C@@H](O)Cn2cc(CNS(=O)(=O)c3ccc(F)cc3)nn2)C(OCc2ccccc2)=C1OCc1ccccc1                  =             7.52
4  O=C1O[C@H]([C@@H](O)Cn2cc(-c3ccc(Br)cc3)nn2)C(OCc2ccccc2)=C1OCc1ccccc1                  =             5.29
5  CCCCCc1ccc(-c2cn(C[C@H](O)[C@H]3OC(=O)C(OCc4ccccc4)=C3OCc3ccccc3)nn2)cc1                  <             4.00
6  O=C1O/C(=C\Cn2cc(-c3cccc(O)c3)nn2)C(OCc2ccccc2)=C1OCc1ccccc1                  =             4.37
7  O=C1O/C(=C\Cn2cc(-c3cc(F)cc(F)c3)nn2)C(OCc2ccccc2)=C1OCc1ccccc1                  <             4.00

----------
- Test system: MDCK
- Assay comment: Cytotoxicity against dog MDCK cells assessed as reduction in cell viability incubated for 3 days by coulter counter method
- Type: cell-based, Canis lupus familiaris
- Measurement conditions: mdck, 72 h
Measured attribute: CC50

                                   molecule  experimental_system    result
0                     NC12CC3CC(CC(C3)C1)C2                 MDCK  > 100 µM
1  O=C1O[C@H]([C@@H](O)Cn2ccnn2)C(OCc2ccccc2)=C1OCc1ccccc1                 MDCK  > 100 µM
2  CC(=O)N[C@H]1[C@H]([C@H](O)[C@H](O)CO)OC(C(=O)O)=C[C@@H]1N=C(N)N                 MDCK  ≥ 100 µM
3  CC(N)C12CC3CC(CC(C3)C1)C2 (centres undefined)                 MDCK  > 200 µM

----------
- Test system: Influenza B virus
- Assay comment: Antiviral activity against Influenza B virus (B/Ned/537/05) infected in dog MDCK cells assessed as reduction in virus-induced cytopathogenicity incubated for 7 days by microscopic analysis
- Assay type: functional, organism-based
- Measurement conditions: 168 h
Measured attribute: EC50

>>> print(df.to_string())
                                   molecule    result
0  O=C1O[C@H]([C@@H](O)Cn2ccnn2)C(OCc2ccccc2)=C1OCc1ccccc1  > 100 µM
1                     NC12CC3CC(CC(C3)C1)C2  > 100 µM
2  CC(=O)N[C@H]1[C@H]([C@H](O)[C@H](O)CO)OC(C(=O)O)=C[C@@H]1N=C(N)N    0.4 µM
3  NC(=O)c1ncn([C@@H]2O[C@H](CO)[C@@H](O)[C@H]2O)n1    5.6 µM
4  CC(N)C12CC3CC(CC(C3)C1)C2 (stereo not given)  > 200 µM
